B1: EPB41L3 (parent)
chain: FRFAPNHTKELEDKVIELHKSHRG

Variants of: B1
Test: protein stability index of a GFP-peptide fusion (GPS, HEK-293T) (PSI 1-6); higher = more stable;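 further: lentivirally expressed fusions sorted by FACS into six bins by GFP to DsRed ratio, PSI derived from sequencing read proportions per bin multiplied by bin number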
Conditions: c terminus: a fixed tail appended
Recorded protein stability index by entry
Form field (numeric): enter value without unit.

mutation	protein stability index
D13I	2.9
K14E	2.53
H22F	1.92
G24N	2.45

Ask: Field request: protein stability index | item: `R2A`
Reply: 3.49

Ask: Can you check `F1P` next?
Reply: 3.99

Ask: Can you check `E12G` next?
Reply: 2.33
